From: ChEMBL document CHEMBL1141195

pKi: −log10 of the molar value.
Values of pKi reported for UniProtKB Q9Y2D0 appear below.
Sequence (Q9Y2D0 whole entry): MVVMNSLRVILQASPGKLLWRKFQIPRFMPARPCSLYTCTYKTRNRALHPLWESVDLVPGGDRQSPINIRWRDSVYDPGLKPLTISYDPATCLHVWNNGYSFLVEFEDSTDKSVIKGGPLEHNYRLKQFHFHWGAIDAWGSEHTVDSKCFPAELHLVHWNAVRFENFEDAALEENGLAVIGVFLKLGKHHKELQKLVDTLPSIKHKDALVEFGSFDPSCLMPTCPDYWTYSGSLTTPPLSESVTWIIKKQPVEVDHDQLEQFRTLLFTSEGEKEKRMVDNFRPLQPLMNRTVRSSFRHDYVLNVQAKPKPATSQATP

{"Compound": "CC1(C)O[C@@H]2[C@@H](CO[C@@]3(COS(N)(=O)=O)OC(C)(C)O[C@@H]23)O1 [TOPIRAMATE]", "pKi": 7.52}
{"Compound": "NS(=O)(=O)c1ccc(CO)cc1", "pKi": 5.13}
{"Compound": "NCCc1ccc(S(N)(=O)=O)cc1", "pKi": 5.05}
{"Compound": "NS(=O)(=O)c1nnc(-c2ccccc2Cl)s1", "pKi": 7.52}
{"Compound": "NS(=O)(=O)c1ccc(C(=O)O)cc1 [CARZENIDE]", "pKi": 5.81}
{"Compound": "Nc1ccc(S(N)(=O)=O)cc1I", "pKi": 5.48}
{"Compound": "NCc1ccc(S(N)(=O)=O)cc1 [MAFENIDE]", "pKi": 4.91}
{"Compound": "CCN[C@H]1CN(CCCOC)S(=O)(=O)c2sc(S(N)(=O)=O)cc21 [BRINZOLAMIDE]", "pKi": 7.52}
{"Compound": "Cc1ccc(S(N)(=O)=O)cc1 [P-TOLUENESULFONAMIDE]", "pKi": 5.61}
{"Compound": "NNc1ccc(S(N)(=O)=O)cc1", "pKi": 5.46}
{"Compound": "Nc1cc(C(F)(F)F)c(S(N)(=O)=O)cc1S(N)(=O)=O", "pKi": 5.18}

###

Values of pKi reported for Carbonic anhydrase 5A, mitochondrial (Homo sapiens) appear below.
pKi: −log10 of the molar value.
Readout Kind: pKi

{"Molecule": "NS(=O)(=O)c1nc2ccc(O)cc2s1", "Reading": 7.27}
{"Molecule": "Nc1ccc(S(=O)(=O)NCCc2ccc(S(N)(=O)=O)cc2)cc1", "Reading": 6.92}
{"Molecule": "Cc1ccc(S(N)(=O)=O)cc1 [P-TOLUENESULFONAMIDE]", "Reading": 5.33}
{"Molecule": "NCc1ccc(S(N)(=O)=O)cc1 [MAFENIDE]", "Reading": 4.56}
{"Molecule": "NS(=O)(=O)c1ccc(C(=O)O)cc1 [CARZENIDE]", "Reading": 5.58}
{"Molecule": "NS(=O)(=O)c1ccc(CCO)cc1", "Reading": 5.06}
{"Molecule": "Nc1ccc(S(N)(=O)=O)cc1Cl", "Reading": 5.13}
{"Molecule": "NNc1ccccc1S(N)(=O)=O", "Reading": 5.02}
{"Molecule": "Nc1ccc(S(N)(=O)=O)cc1Br", "Reading": 5.12}
{"Molecule": "NS(=O)(=O)c1nnc(-c2ccccc2Cl)s1", "Reading": 7.37}
{"Molecule": "Nc1ccc(S(N)(=O)=O)cc1 [SULFANILAMIDE]", "Reading": 4.49}
{"Molecule": "CCN[C@H]1CN(CCCOC)S(=O)(=O)c2sc(S(N)(=O)=O)cc21 [BRINZOLAMIDE]", "Reading": 7.30}
{"Molecule": "Nc1ccc(S(N)(=O)=O)cc1I", "Reading": 5.03}

###

target: Carbonic anhydrase 5A, mitochondrial (Homo sapiens, UniProt P35218)
Sequence (P35218 whole entry): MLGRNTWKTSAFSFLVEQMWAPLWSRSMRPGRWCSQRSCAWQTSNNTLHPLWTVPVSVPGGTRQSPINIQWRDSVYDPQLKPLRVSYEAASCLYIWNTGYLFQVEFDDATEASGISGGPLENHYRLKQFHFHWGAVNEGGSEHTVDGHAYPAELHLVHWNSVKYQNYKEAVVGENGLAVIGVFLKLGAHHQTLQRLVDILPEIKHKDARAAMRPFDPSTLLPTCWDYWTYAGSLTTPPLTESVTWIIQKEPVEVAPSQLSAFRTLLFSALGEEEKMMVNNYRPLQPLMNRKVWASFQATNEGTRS
pKi: −log10 of the molar value.
Each entry gets not fulfilled if its pKi stays under 5, and fulfilled if its pKi is 5 or above.

{"Compound": "Nc1nccc(Nc2ccc(S(N)(=O)=O)cc2)n1", "Class Name": "not fulfilled"}
{"Compound": "CC1(C)O[C@@H]2[C@@H](CO[C@@]3(COS(N)(=O)=O)OC(C)(C)O[C@@H]23)O1 [TOPIRAMATE]", "Class Name": "fulfilled"}
{"Compound": "NCCc1ccc(S(N)(=O)=O)cc1", "Class Name": "not fulfilled"}
{"Compound": "NS(=O)(=O)c1ccc(S(=O)(=O)Nc2cccc3c(Cl)c[nH]c23)cc1", "Class Name": "fulfilled"}
